- Test system: E. coli DC2
- Assay type: cell-based, Escherichia coli
- protocol_conditions: E. coli DC2; unit from Table 10
- Procedure: […] It is now apparent that agar-based assays severely underestimate antifungal activity as well as activity against gram negative microorganisms (Kondejewski, et al., 1996). […] Plates were incubated at 37° C. overnight and MICs determined as the lowest antibiotic concentration that inhibited growth. […]
Where a SMILES comes first, the peptide text is derived from it. [ ]: non-standard residue; d: D form. Orn = NCCC[C@H](N)C(=O)O
Measured Antibiotic activity (Table 11, ring analogs) accompanies every entry in the list below.
Please reply with the bare figure in μg/ml and do not write the unit itself.

molecule: CC(C)C[C@@H]1NC(=O)[C@H](CCCN)NC(=O)[C@H](CC(C)C)NC(=O)[C@@H]2CCCN2C(=O)[C@@H](Cc2ccccc2)NC(=O)[C@H](CC(C)C)NC(=O)[C@H](CCCN)NC(=O)[C@H](CC(C)C)NC(=O)[C@H](CCCN)NC(=O)[C@@H]2CCCN2C(=O)[C@@H](Cc2ccccc2)NC(=O)[C@H](CCCN)NC1=O [GS12FO/LL, FPLOLOFPOLOL] (cyclo(L[Orn]L[Orn][dF]P[Orn]L[Orn]L[dF]P))
numeric_result: 5

Measured Antibiotic activity (Table 11, ring analogs) of CC(C)C[C@@H]1NC(=O)[C@H](CCCCN)NC(=O)[C@@H]2CCCN2C(=O)[C@@H](Cc2ccc(O)cc2)NC(=O)[C@H](CCCCN)NC(=O)[C@H](C(C)C)NC(=O)[C@H](CCCCN)NC(=O)[C@H](CC(C)C)NC(=O)[C@@H]2CCCN2C(=O)[C@@H](Cc2ccc(O)cc2)NC(=O)[C@H](C(C)C)NC(=O)[C@H](CCCCN)NC1=O [GS12LV] : 14

====

Below: a set of entries, each annotated with reported Hemolytic activity.
- System: human erythrocytes
- experimental_details: Hemolytic activity
- Type: cell-based
Where a SMILES comes first, the peptide text is derived from it. [ ]: non-standard residue; d: D form. Orn = NCCC[C@H](N)C(=O)O
Give your result in µg/mL as a bare value.

compound: CC(C)C[C@@H]1NC(=O)[C@H](CCCCN)NC(=O)[C@H](C(C)C)NC(=O)[C@@H]2CCCN2C(=O)[C@@H](Cc2ccccc2)NC(=O)[C@H](CC(C)C)NC(=O)[C@H](CCCCN)NC(=O)[C@H](C(C)C)NC(=O)[C@H](CCCCN)NC(=O)[C@@H]2CCCN2C(=O)[C@@H](Cc2ccccc2)NC(=O)[C@H](CCCCN)NC1=O [GS12F]
Hemolytic activity [µg/mL]: 400

Per the records, this compound ( CC(C)C[C@@H]1NC(=O)[C@H](CCCCN)NC(=O)[C@@H]2CCCN2C(=O)[C@@H](Cc2ccc(O)cc2)NC(=O)[C@H](CCCCN)NC(=O)[C@H](C(C)C)NC(=O)[C@H](CCCCN)NC(=O)[C@H](CC(C)C)NC(=O)[C@@H]2CCCN2C(=O)[C@@H](Cc2ccc(O)cc2)NC(=O)[C@H](C(C)C)NC(=O)[C@H](CCCCN)NC1=O [GS12LV] ) has Hemolytic activity equal to 92

CC(C)C[C@@H]1NC(=O)[C@H](CCCN)NC(=O)[C@H](C(C)C)NC(=O)[C@@H]2CCCN2C(=O)[C@@H](Cc2ccccc2)NC(=O)[C@H](CC(C)C)NC(=O)[C@H](CCCN)NC(=O)[C@H](C(C)C)NC(=O)[C@H](CCCN)NC(=O)[C@@H]2CCCN2C(=O)[C@@H](Cc2ccccc2)NC(=O)[C@H](CCCN)NC1=O [GS12FO, FPVOLOFPOVOL] (cyclo(L[Orn][dF]P[Orn]V[Orn]L[dF]PV[Orn])) has a reported Hemolytic activity of 160

====

- System: human erythrocytes
- experimental_details: Hemolytic activity
- Assay type: cell-based
measured_property: Hemolytic activity: peptide concentration for 100% lysis of human erythrocytes

Worked cases, answers included:
compound: CC(C)C[C@@H]1NC(=O)[C@H](CCCCN)NC(=O)[C@H](C(C)C)NC(=O)[C@H](CCCCN)NC(=O)[C@@H]2CCCN2C(=O)[C@@H](Cc2ccc(O)cc2)NC(=O)[C@H](CCCCN)NC(=O)[C@H](CC(C)C)NC(=O)[C@H](CCCCN)NC(=O)[C@H](C(C)C)NC(=O)[C@@H](CCCCN)NC(=O)[C@@H]2CCCN2C(=O)[C@@H](Cc2ccc(O)cc2)NC(=O)[C@H](CCCCN)NC1=O
result: >800 µg/mL
//
compound: CC(C)C[C@@H]1NC(=O)[C@H](CCCCN)NC(=O)[C@H](C(C)C)NC(=O)[C@@H]2CCCN2C(=O)[C@@H](Cc2ccc(O)cc2)NC(=O)[C@H](CCCCN)NC(=O)[C@H](CC(C)C)NC(=O)[C@H](C(C)C)NC(=O)[C@H](CCCCN)NC(=O)[C@H](CC(C)C)NC(=O)[C@@H]2CCCN2C(=O)[C@@H](Cc2ccc(O)cc2)NC(=O)[C@H](CCCCN)NC(=O)[C@H](C(C)C)NC1=O [GS14na]
result: >800 µg/mL

Moving on to another compound below.
The compound identified as CC(C)C[C@@H]1NC(=O)[C@H](C(C)C)NC(=O)[C@H](CC(C)C)NC(=O)[C@@H]2CCCN2C(=O)[C@@H](Cc2ccc(O)cc2)NC(=O)[C@H](C(C)C)NC(=O)[C@H](CC(C)C)NC(=O)[C@H](C(C)C)NC(=O)[C@H](CCCCN)NC(=O)[C@H](CCCCN)NC(=O)[C@@H]2CCCN2C(=O)[C@@H](Cc2ccc(O)cc2)NC(=O)[C@H](CCCCN)NC(=O)[C@H](CCCCN)NC1=O registered its Hemolytic activity: peptide concentration for 100% lysis of human erythrocytes at 800 µg/mL

====

- Test system: P. aeruginosa H188
- Assay type: cell-based, Pseudomonas aeruginosa
- protocol_conditions: H188
Minimum Inhibitory Concentration (activity) values, listed per item
Don't forget the unit after the value.

compound: CC(C)C[C@@H]1NC(=O)[C@H](CCCCN)NC(=O)[C@H](C(C)C)NC(=O)[C@@H]2CCCN2C(=O)[C@@H](Cc2ccc(O)cc2)NC(=O)[C@H](CC(C)C)NC(=O)[C@H](CCCCN)NC(=O)[C@H](C(C)C)NC(=O)[C@H](CCCCN)NC(=O)[C@@H](CC(C)C)NC(=O)[C@@H]2CCCN2C(=O)[C@@H](Cc2ccc(O)cc2)NC(=O)[C@H](C(C)C)NC(=O)[C@H](CCCCN)NC1=O [GS14L8]
result: 3.1 µg/mL

response.value for CC(C)[C@@H]1NC(=O)[C@H](CCCCN)NC(=O)[C@H](C)NC(=O)[C@@H]2CCCN2C(=O)[C@@H](Cc2ccc(O)cc2)NC(=O)[C@H](C(C)C)NC(=O)[C@@H](CCCCN)NC(=O)[C@H](C)NC(=O)[C@H](CCCCN)NC(=O)[C@H](C(C)C)NC(=O)[C@@H]2CCCN2C(=O)[C@@H](Cc2ccc(O)cc2)NC(=O)[C@H](C)NC(=O)[C@H](CCCCN)NC1=O [L3/A3] (field: Minimum Inhibitory Concentration (activity)) = 75 µg/mL

====

- System: P. aeruginosa H188
- Format: cell-based, Pseudomonas aeruginosa
- protocol_conditions: H188
- Method: […] It is now apparent that agar-based assays severely underestimate antifungal activity as well as activity against gram negative microorganisms (Kondejewski, et al., 1996). […] Plates were incubated at 37° C. overnight and MICs determined as the lowest antibiotic concentration that inhibited growth. […]
measured_property: Minimum Inhibitory Concentration (activity) (µg/mL)
Write the value in µg/mL as a bare number.

Look over these answered cases.
line_notation: CC(C)C[C@@H]1NC(=O)[C@H](CCCCN)NC(=O)[C@H](C(C)C)NC(=O)[C@H](CCCCN)NC(=O)[C@H](CC(C)C)NC(=O)[C@@H]2CCCN2C(=O)[C@@H](Cc2ccc(O)cc2)NC(=O)[C@H](C(C)C)NC(=O)[C@H](CCCCN)NC(=O)[C@@H](CC(C)C)NC(=O)[C@H](CCCCN)NC(=O)[C@H](C(C)C)NC(=O)[C@@H]2CCCN2C(=O)[C@@H](Cc2ccc(O)cc2)NC1=O
numeric_result: 200
--
line_notation: CC(C)C[C@@H]1NC(=O)[C@H](CCCCN)NC(=O)[C@H](C)NC(=O)[C@@H]2CCCN2C(=O)[C@@H](Cc2ccc(O)cc2)NC(=O)[C@H](CC(C)C)NC(=O)[C@H](CCCCN)NC(=O)[C@H](C)NC(=O)[C@H](CCCCN)NC(=O)[C@H](CC(C)C)NC(=O)[C@@H]2CCCN2C(=O)[C@@H](Cc2ccc(O)cc2)NC(=O)[C@H](C)NC(=O)[C@@H](CCCCN)NC1=O
numeric_result: 18
--
line_notation: CC(C)C[C@@H]1NC(=O)[C@H](CCCCN)NC(=O)[C@H](C(C)C)NC(=O)[C@@H]2CCCN2C(=O)[C@@H](Cc2ccc(O)cc2)NC(=O)[C@H](CC(C)C)NC(=O)[C@H](CCCCN)NC(=O)[C@H](C(C)C)NC(=O)[C@H](CCCCN)NC(=O)[C@H](CC(C)C)NC(=O)[C@@H]2CCCN2C(=O)[C@@H](Cc2ccc(O)cc2)NC(=O)[C@@H](C(C)C)NC(=O)[C@H](CCCCN)NC1=O
numeric_result: 62

GET /value?item= CC(C)C[C@@H]1NC(=O)[C@H](CCCCN)NC(=O)[C@H](C(C)C)NC(=O)[C@@H]2CCCN2C(=O)[C@@H](Cc2ccc(O)cc2)NC(=O)[C@H](CC(C)C)NC(=O)[C@H](CCCCN)NC(=O)[C@@H](C(C)C)NC(=O)[C@H](CCCCN)NC(=O)[C@H](CC(C)C)NC(=O)[C@@H]2CCCN2C(=O)[C@@H](Cc2ccc(O)cc2)NC(=O)[C@H](C(C)C)NC(=O)[C@H](CCCCN)NC1=O &field=Minimum Inhibitory Concentration (activity) returns 200

Documented Minimum Inhibitory Concentration (activity) of CC(C)C[C@@H]1NC(=O)[C@H](CCCCN)NC(=O)[C@H](C(C)C)NC(=O)[C@@H]2CCCN2C(=O)[C@H](Cc2ccc(O)cc2)NC(=O)[C@H](CC(C)C)NC(=O)[C@H](CCCCN)NC(=O)[C@H](C(C)C)NC(=O)[C@H](CCCCN)NC(=O)[C@H](CC(C)C)NC(=O)[C@@H]2CCCN2C(=O)[C@@H](Cc2ccc(O)cc2)NC(=O)[C@H](C(C)C)NC(=O)[C@H](CCCCN)NC1=O : 100

The values you see were collected from patent US6358921B1.
